Quick list: melting point per entry.

molecule: Fc1ccc(OCc2cccc(Oc3ccnc(Cl)c3)n2)cc1
melting point: 103 °C
//
molecule: Cc1nc(-c2ccc(Cl)cc2C(=O)c2ccccc2)n[nH]1
melting point: 148 to 150 °C
//
molecule: COc1ccc(C2=NN(C3CCN(S(=O)(=O)c4ccc(Cl)cc4)CC3)C(=O)CC2)cc1OC
melting point: 185 to 186 °C
//
molecule: O=c1[nH]c2ccccc2cc1CN1CC=C(CCc2ccccc2)CC1
melting point: 177 to 179 °C
//
molecule: NC(=O)c1cc2ccccc2cc1O
melting point: 216 to 217 °C
//
molecule: COc1ccc2c(c1)C(=O)N(c1ccc3ncsc3c1)C2
melting point: 204 to 207 °C
//
molecule: COC(=O)c1cc2c3cc(OC)ccc3n(C)c2s1
melting point: 124 to 125 °C
//
molecule: C#CCOc1ccc(S(=O)(=O)C2(C(=O)O)CCN(Cc3ccc(OC)cc3)CC2)cc1
melting point: 208 °C
//
molecule: O=C(O)COc1ccc(CCC(=O)c2ccc(-c3ccc(C(F)(F)F)cc3)s2)c(Cl)c1Cl
melting point: 217 to 219 °C
//
molecule: O=CNc1ccc2[nH]c3cc(-c4ccccc4Cl)c4c(c3c2c1)C(=O)NC4=O
melting point: 293 to 297 °C

---

compound: Cc1oc(-c2cc(C(C)(C)C)c(O)c(C(C)(C)C)c2)nc1CC(=O)O
melting point: 205 to 206 °C

compound: N=C(N)N(CCCC(C=O)NC(=O)C1CCCN1C(=O)COc1ccccc1)C(=O)OCc1ccccc1 (stereo not given)
melting point: 65 to 78 °C

compound: CCOCc1nc2c(N)nc3ccc(N4CCOC4=O)cc3c2n1CC(C)(C)O
melting point: 207 to 210 °C

compound: CCCCCCOc1ccc(CCCCCCCCC(=O)NO)cc1
melting point: 94 to 96 °C

compound: CC(C)(C)c1ccc(OCCOc2ccccc2N)c(N)c1
melting point: 148 to 150 °C

compound: CC(CC(C)C1CCC2C3C(O)CC4CC(O)CCC4(C)C3CC(O)C12C)C(=O)O (stereo not given)
melting point: 151 to 153 °C

compound: CCOC(=O)c1cn2c3c(c(F)c(F)c(F)c3c1=O)CCN2C
melting point: 236 to 240 °C

compound: CC(C)Oc1ccc(-c2ccc3oc(C4CCN(C(=O)OC(C)(C)C)CC4)nc3c2)cc1F
melting point: 124 to 128 °C

compound: CC(C)CNC(=O)C=CC=Cc1ccc2c(c1)OCO2
melting point: 156 to 160 °C

compound: OCCCCCCCCCCCCCCCCCCCCO
melting point: 93 °C

---

melting point values by entry

compound: COC(=O)c1ccccc1S(=O)(=O)NC(=O)n1nc(Oc2ccccc2)n(C)c1=O
melting point: 161 °C
//
compound: COC(=O)c1scc(C)c1-n1cccc1
melting point: 76 °C
//
compound: CN1C(=O)C(C)(C)C(=O)N(C)c2cc(N)ccc21
melting point: 221 to 222 °C
//
compound: CC(C)(C)NCCCOc1ccccc1C(=O)c1cccc2[nH]ccc12
melting point: 130 °C
//
compound: CCCCCCCCCC1(C)NC(=S)NC1=S (stereo unspecified)
melting point: 88 to 89 °C
//
compound: CN(C(=O)Nc1ccc2ccccc2c1)c1cccc(-c2ccc(CCC(=O)O)cc2)c1
melting point: 170 to 171 °C
//
compound: CC(=O)N(C)C(Cc1ccccc1N)c1ccccn1 (stereo unspecified)
melting point: 103 to 107 °C
//
compound: CCCC(=O)c1c[nH]c2c(C(=O)OC)cccc2c1=O
melting point: 151 to 153 °C
//
compound: COc1ccc(C(=O)Nc2ccccc2CCCC2CCCCN2C)cc1 (stereo unspecified)
melting point: 107 to 110 °C
//
compound: Nc1c(Cl)c(C(=O)O)nc(Cl)c1Br
melting point: 201 to 202 °C
//
compound: Nc1cccc(-c2cccc(-c3ccnc4c(C(=O)c5cccs5)cnn34)c2)c1
melting point: 117 to 121 °C

---

metric: melting point

compound: CCc1[nH]n(C2CCCC2)c2nc(-c3cccc(OCC(=O)O)c3)nc(=O)c1-2
observedMeasurement: 299 to 300 °C

compound: CCOC(=O)CNc1ccc2ccccc2c1
observedMeasurement: 83 to 84 °C

compound: CC(O)CN(CC(=O)O)CC(C)O (stereo unspecified)
observedMeasurement: 145 °C

compound: O=c1[nH]c2ccccc2n1CCCN1CCC(c2noc3cc(F)ccc23)CC1
observedMeasurement: 175 to 177 °C

compound: NC(=O)C1(c2c(F)cccc2F)CC1
observedMeasurement: 137 to 138 °C

compound: Nc1ncc(C(F)(F)F)cc1[N+](=O)[O-]
observedMeasurement: 110 to 112 °C

compound: OC(COCC1CNCCO1)c1ccc2ccccc2c1 (stereo unspecified)
observedMeasurement: 141 to 144 °C

compound: Cc1cc2c(cc1-c1cc(C=CC(=O)O)n(C)c1)C(C)(C)CCC2(C)C
observedMeasurement: 185 to 186 °C

compound: O=C(O)CCCNC(=O)c1ccccc1NC(=O)c1ccccc1O
observedMeasurement: 173 to 174 °C

compound: COc1cc2ccnc(C=Cc3c(Cl)cccc3Cl)c2cc1OC
observedMeasurement: 145 to 146 °C

compound: O=C1C=C(OCCCCCCI)c2ccccc2C1=O
observedMeasurement: 85 to 87 °C

---

Quick reference for melting point among some compounds

compound: CC(C)NCC(O)COc1cccc2c1CCCC(=O)N2 (stereo unspecified)
melting point: 143 to 145 °C
--
compound: Nc1c(-c2cc(Cl)ccc2O)c2cc(Cl)ccc2[nH]c1=O
melting point: 184 to 185 °C
--
compound: CCN1C(=O)c2cnc(-c3ccccc3)nc2N(C(=O)CN(C(C)C)C(C)C)c2ccccc21
melting point: 120 to 121 °C
--
compound: CCCCCCCCCCCCCCCCCCOc1cc(N(CC(=O)OC)CC(=O)OC)cc(S(=O)CC(=O)OC)c1 (stereo unspecified)
melting point: 81 to 83 °C
--
compound: O=CN1CCc2cc(O)ccc2C1
melting point: 186 °C
--
compound: CCCCCCCCCC(=O)Nc1ccccc1
melting point: 65 to 66 °C
--
compound: O=C(NCCn1c2ccccc2c(=O)c2ccccc21)OCc1ccccc1
melting point: 224 to 226 °C
--
compound: Cc1cc(I)ccc1Nc1c(-c2nnc(N)o2)cc2c(ncn2C)c1F
melting point: 258 to 260 °C
--
compound: CCCc1nc(N(C)c2ccccc2)n2ncc(C(O)c3ccccc3Cl)c2n1 (stereo unspecified)
melting point: 153 to 155 °C
--
compound: Cc1nccn1C[Si](C)(C)Cc1ccc(F)cc1
melting point: 60 to 62 °C
--
compound: Cc1ccc2c(-n3ccnc3)c(F)ccc2n1
melting point: 159 to 161 °C
--
compound: CN1C(=O)CC[C@]2(C)c3ccc(Sc4nc5cccc(Cl)c5s4)cc3CC[C@@H]12
melting point: 90 to 91 °C
--
compound: COC(=O)c1ccc(-c2nc(-c3ccccc3)co2)cc1
melting point: 175 to 176 °C
--
compound: CS(=O)(=O)O[C@H]1CCNC1=O
melting point: 122 to 124 °C
--
compound: O=Cc1cc(Br)c(OCCBr)c(Br)c1
melting point: 84 to 85 °C
--
compound: CCSc1cccc(OC(F)(F)F)c1S(=O)(=O)NC(C)(C)C
melting point: 77 °C
--
compound: CN1CCC(=O)N(c2cccc(Cl)c2Cl)C1=O
melting point: 163 to 165 °C
--
compound: CCc1nc2c(cnn2CC)c(NC2CCOCC2)c1CNC(=O)c1cccc(C(=O)NCc2cc(Cl)cc(-c3cccc(CN4CCNCC4)c3)c2)c1
melting point: 119 to 122 °C
--
compound: O=C(O)c1ccc(-c2nn(-c3ccc(C(=O)O)cc3)c3ccc([N+](=O)[O-])cc23)cc1
melting point: 348 to 350 °C
--
compound: Cc1ccc(S(=O)(=O)C(=[N+]=[N-])S(C)(=O)=O)cc1
melting point: 108 to 109 °C
--
compound: O=c1ccc(S(=O)(=O)c2cc3cc(Cl)cc(Cl)c3o2)n[nH]1
melting point: 240 to 245 °C

---

compound: CCOP(=O)(Cc1ccc2ccccc2c1O)OCC
melting point: 90.1 to 91.3 °C
--
compound: CCCCCCCCC=CCCCCCCCC(=O)Cl
melting point: 73 to 74 °C
--
compound: CC(=O)N1CCC(C(=NN)c2ccc(F)cc2F)CC1
melting point: 139 to 142 °C
--
compound: O=C1C(N2CCOCC2)=CCCN1c1ccc(I)cc1
melting point: 138 to 148 °C
--
compound: NC(=O)C(=O)NCCc1ccc(OCc2ccccc2)c(OCc2ccccc2)c1
melting point: 187 °C
--
compound: C=CC(=O)OCCCCCCOc1ccc(C(=O)O)cc1
melting point: 139 °C
--
compound: N#CCc1cccc2c(=O)cc(C3(Br)CCCCC3)oc12
melting point: 144 to 145 °C
--
compound: CNC(=O)[C@H](O)C(C)(C)C
melting point: 60 to 62 °C
--
compound: CC1Cc2cc(C(=O)O)ccc2C1=O (configuration not stated)
melting point: 189 to 194 °C
--
compound: CC(C)C(NS(=O)(=O)c1ccc2c3c(oc2c1)CCCC3)C(=O)O (configuration not stated)
melting point: 167 to 169 °C
--
compound: O=C(O)c1cc2c(Cl)cccc2s1
melting point: 227 to 231 °C
--
compound: Cn1nc(-c2c(Cl)cccc2Cl)nc1-c1cccs1
melting point: 161 to 163 °C
